Kindly state SGCB cell-surface expression functional score (log10) for each of the entries shown.
B1: library; numbered along this chain (parent)
chain: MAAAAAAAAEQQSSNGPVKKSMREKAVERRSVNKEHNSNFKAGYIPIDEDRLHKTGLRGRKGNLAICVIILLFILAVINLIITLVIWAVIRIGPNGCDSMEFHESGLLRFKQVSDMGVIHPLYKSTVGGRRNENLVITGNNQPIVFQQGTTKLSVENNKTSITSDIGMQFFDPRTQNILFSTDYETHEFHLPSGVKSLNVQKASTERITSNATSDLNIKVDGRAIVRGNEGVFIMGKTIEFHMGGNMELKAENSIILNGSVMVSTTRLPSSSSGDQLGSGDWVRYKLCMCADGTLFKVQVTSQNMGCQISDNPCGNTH

# Variants of: B1
# Experimental protocol: SGCB cell-surface expression functional score (HA stain, bin4 vs bin1, normalised to synonymous) (log10 ratio); higher = more cell-surface SGCB (functional)
Answers are plain numbers.

{"columns": ["Alteration", "Recorded measurement"],
 "data": [
  ["T175A", 0.26],
  ["I78Q", -0.47],
  ["L295E", -0.95]
]}

Parameters: items (list). Returns: SGCB cell-surface expression functional score (log10) for each item.
1. S193V
2. L64K
3. L257G
4. S310F

Solution:
1. 0.52
2. 0.15
3. -0.1
4. 0.06

Look at each variant and report its SGCB cell-surface expression functional score (log10).
1. L107N
2. L179S
3. I81Q

Solution:
[-0.13, -1.32, 0.03]

List reported SGCB cell-surface expression functional score (log10) for each of these variants:
1. F233Q
2. I162G

Solution:
1. 0.77
2. -1.34

Please report SGCB cell-surface expression functional score (log10) for every entry that follows.
1. Q148N
2. K19R
3. G96N
4. T175K
5. L268G
6. S264T
7. D115Q
8. W87I

Solution:
-1.26
0.18
-2.04
-0.54
-0.22
0.31
-0.98
0.48
